B1: LINE1-mini (parent)
chain: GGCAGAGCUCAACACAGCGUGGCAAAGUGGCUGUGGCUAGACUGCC

Variants of: B1
Assay: self-cleavage, relative activity (ratio to wild type); higher = more cleavage; in vitro, sequencing; the parent is a self-cleaving ribozyme
Outcome label depends on self-cleavage relative to 0.09: at/above gives Satisfied, below gives Not satisfied.

>>> class_name("GGCAGAGCUCAACACAGCGUGGCAAAGGGGCUGAGGCUAGACUGCC [U28G U34A]")
"Satisfied"
>>> class_name("GGCAGAGCUCAACACCGCGUGGCAAAGCGGCUGUGGCUAGACUGCC [A16C U28C]")
"Not satisfied"
>>> class_name("GGCAGACCUCAACACAGCGUGGCAAAGUGGCUGUGGCGAGACUGCC [G7C U38G]")
"Not satisfied"
>>> class_name("GGUAGAGCUCAACACAGCGUGACAAAGUGGCUGUGGCUAGACUGCC [C3U G22A]")
"Satisfied"
>>> class_name("GACAGAGAUCAACACAGCGUGGCAAAGUGGCUGUGGCUAGACUGCC [G2A C8A]")
"Satisfied"
>>> class_name("GUCAGAGCUCAACACAGUGUGGCAAAGUGGCUGUGGCUAGACUGCC [G2U C18U]")
"Not satisfied"
>>> class_name("GGCAGAGGUCAACACAGCGUGGCAAAGAGGCUGUGGCUAGACUGCC [C8G U28A]")
"Not satisfied"
>>> class_name("GACAGUGCUCAACACAGCGUGGCAAAGUGGCUGUGGCUAGACUGCC [G2A A6U]")
"Satisfied"
>>> class_name("GGCAGAGCUCAACACAGCGUAGCAAACUGGCUGUGGCUAGACUGCC [G21A G27C]")
"Satisfied"
>>> class_name("GGCAGAUCUCAACACAGCGUGGCAAAGUGGCUGUGGCUAGACAGCC [G7U U43A]")
"Satisfied"
>>> class_name("GGCAGAGCUCAACACAGCGUGGCAAAAUGGCUGAGGCUAGACUGCC [G27A U34A]")
"Satisfied"
>>> class_name("GGCAGAGCUCAAGACAGCGUGGCAAAGUGGCUGUGGCUAGACUGCG [C13G C46G]")
"Satisfied"
>>> class_name("GGUAGAGCUCAACACAGCGUGGCAAAGUGGCUGGGGCUAGACUGCC [C3U U34G]")
"Not satisfied"
>>> class_name("GUCAGAGCUCAACACAGCAUGGCAAAGUGGCUGUGGCUAGACUGCC [G2U G19A]")
"Not satisfied"
>>> class_name("GGCAGAGCUGCACACAGCGUGGCAAAGUGGCUGUGGCUAGACUGCC [C10G A11C]")
"Not satisfied"
>>> class_name("GGCAGAGCUCAACACAGCGUGGCAAAGUCGCUGUGGCUAGGCUGCC [G29C A41G]")
"Satisfied"
>>> class_name("GGCAGAGCUCAACACAGCUUGGCAAAGUGGCUGCGGCUAGACUGCC [G19U U34C]")
"Satisfied"
>>> class_name("GGGAGAGCUCAACACACCGUGGCAAAGUGGCUGUGGCUAGACUGCC [C3G G17C]")
"Satisfied"
>>> class_name("GGCAGAGCUUAACACAGCGUGGCAAAGUGGUUGUGGCUAGACUGCC [C10U C31U]")
"Satisfied"
>>> class_name("UGCAGAGCUCAACACAGCGUGGCAAAGUGGCUGUGGCUAGAGUGCC [G1U C42G]")
"Not satisfied"
>>> class_name("GGCAGAGCUCAACACAGCGUGGUAAUGUGGCUGUGGCUAGACUGCC [C23U A26U]")
"Satisfied"
>>> class_name("GGCAGAGCUCAACACAGCCUGGCUAAGUGGCUGUGGCUAGACUGCC [G19C A24U]")
"Satisfied"
>>> class_name("GGCUGAGCUCAACACAGCGUGGCAAAGUGGCUAUGGCUAGACUGCC [A4U G33A]")
"Not satisfied"
>>> class_name("GGCAGAGCUCAACACAGCGUGGCAAAGUGGCUGUGGCUAGACAGCA [U43A C46A]")
"Satisfied"
>>> class_name("GGCAGAGCUCAACAUAGCGUGGCAAAGUGGCUGUGGCUAGAAUGCC [C15U C42A]")
"Not satisfied"
>>> class_name("GGCAGAGGUCAACACAGCGUGGCAAAGUGGUUGUGGCUAGACUGCC [C8G C31U]")
"Satisfied"
>>> class_name("GGCAGAGCUCAUCACAGCGUGGCAAAGUGGCUGUGGCUUGACUGCC [A12U A39U]")
"Satisfied"
>>> class_name("GGCAGAGCUCAACACAGCGUGGCAAAGUGGCUGUGGGUAUACUGCC [C37G G40U]")
"Not satisfied"
>>> class_name("GGCAGAGCUCAACACUGCGUGGCAAAGUGGUUGUGGCUAGACUGCC [A16U C31U]")
"Not satisfied"
>>> class_name("GGCAGAGCUCAACCCAACGUGGCAAAGUGGCUGUGGCUAGACUGCC [A14C G17A]")
"Not satisfied"
>>> class_name("GGCAGAGCUCAACACAGCGUGGCAAAGUGGCUUUGGCUAGACUUCC [G33U G44U]")
"Not satisfied"
>>> class_name("GGCAGAGCUCAACACAGCGUGGCAAAGUGGCAGUGGCUAGACUACC [U32A G44A]")
"Satisfied"
>>> class_name("GGCAGAGCUCAACACAGUGUGGGAAAGUGGCUGUGGCUAGACUGCC [C18U C23G]")
"Satisfied"
>>> class_name("GGGAGAGCUCAACACAGCGUGGCAAAGUGGCUGUGGCUAGUCUGCC [C3G A41U]")
"Satisfied"
>>> class_name("GGCAGAGCUCAACACAGCGUGCCAAAUUGGCUGUGGCUAGACUGCC [G22C G27U]")
"Satisfied"
>>> class_name("GGCAGAGCUCAACACAGCGUGUCAAAGUGGCUGUGGCUAGACUCCC [G22U G44C]")
"Satisfied"
>>> class_name("GGCAGACCUCAACACAGCGUGGCAACGUGGCUGUGGCUAGACUGCC [G7C A26C]")
"Satisfied"
>>> class_name("GGCAGAGCUCAACACAGCGUGGCAAAGUGGCUGUGGCUACAGUGCC [G40C C42G]")
"Satisfied"
>>> class_name("GGCAUAGCUCAACACAGCGUGGCAAAGUCGCUGUGGCUAGACUGCC [G5U G29C]")
"Not satisfied"
>>> class_name("GGCAGAGCACAACACAGCAUGGCAAAGUGGCUGUGGCUAGACUGCC [U9A G19A]")
"Satisfied"
>>> class_name("GACAGAGCUCAACACAGCGUGGCAAAGUGACUGUGGCUAGACUGCC [G2A G30A]")
"Satisfied"
>>> class_name("GGCAGAGCUCAACACAGCGUGGCAAAGUGGCAGGGGCUAGACUGCC [U32A U34G]")
"Not satisfied"
>>> class_name("GGCAGAGCUCAACACAGCCUGGCAAGGUGGCUGUGGCUAGACUGCC [G19C A26G]")
"Satisfied"
>>> class_name("GGCAGAUCUCAACACGGCGUGGCAAAGUGGCUGUGGCUAGACUGCC [G7U A16G]")
"Satisfied"
>>> class_name("GGCAGAGCUCAACACAGCGUGGCAAAGUGGCUGUGGAUACACUGCC [C37A G40C]")
"Satisfied"
>>> class_name("GGCAGAGCUCAACACAGCGUGGCAAAGUGGCUGUUGCUAGACUCCC [G35U G44C]")
"Not satisfied"
>>> class_name("GGCAGGGCUCAACACAGCGUGGCAAAGUGGCUGUGGCUGGACUGCC [A6G A39G]")
"Not satisfied"
>>> class_name("GGCAGAGCUCAACACAGCGUGGCAAAGAGGCUAUGGCUAGACUGCC [U28A G33A]")
"Not satisfied"
>>> class_name("GGCAGAGCUCAAUACAGCGUGGAAAAGUGGCUGUGGCUAGACUGCC [C13U C23A]")
"Satisfied"
>>> class_name("GGCAGAGGUCAACACAGCGUCGCAAAGUGGCUGUGGCUAGACUGCC [C8G G21C]")
"Not satisfied"
>>> class_name("GGAAGAGCUGAACACAGCGUGGCAAAGUGGCUGUGGCUAGACUGCC [C3A C10G]")
"Not satisfied"
>>> class_name("GGCAGAGCUCAACACAGCGUGGCAAAGUGGCUGGGGCUAGAUUGCC [U34G C42U]")
"Satisfied"
>>> class_name("GGCAGAGCUCAACACAGCGUCGCAAAGUGGCUGUGGCUACACUGCC [G21C G40C]")
"Not satisfied"
>>> class_name("GGCAGAGCUCAACACAGCGUGGCAAAGCGGCUGUGGCUAGACUGGC [U28C C45G]")
"Satisfied"
>>> class_name("GGCAGAGCUCAACACUGCGUGGGAAAGUGGCUGUGGCUAGACUGCC [A16U C23G]")
"Satisfied"
>>> class_name("GGCAGAGCUCAACACAGCGUGGCAAAGUGGCCGUGGCUAGACUGUC [U32C C45U]")
"Satisfied"
>>> class_name("GGCAGAGCUCAAUACAGCGUGGCAAAGUGGCUGUGGCAAGACUGCC [C13U U38A]")
"Not satisfied"
>>> class_name("GGCAGAGCUCUACAGAGCGUGGCAAAGUGGCUGUGGCUAGACUGCC [A11U C15G]")
"Not satisfied"
>>> class_name("GGCAGAGCUCAUCACAGCGUGGCAAAGUGGCUGUGGCUAGACUGUC [A12U C45U]")
"Satisfied"
>>> class_name("GGCUGAGCUCAACACAGCGUGGCAAAGUGGCUGUGGAUAGACUGCC [A4U C37A]")
"Satisfied"
>>> class_name("GGCAGAGCUCAACACAGCGUGGCAAAGUGGCUGUGGCUAGACCGCU [U43C C46U]")
"Satisfied"
>>> class_name("GGCAGAGAUCAACACAGCGCGGCAAAGUGGCUGUGGCUAGACUGCC [C8A U20C]")
"Satisfied"
>>> class_name("GGCAGAGCUCAACACGGCGUGGCAAAGUGGCUGUGGCUAGACUUCC [A16G G44U]")
"Not satisfied"
>>> class_name("GGCAGAGCUCAAGAUAGCGUGGCAAAGUGGCUGUGGCUAGACUGCC [C13G C15U]")
"Satisfied"
>>> class_name("GGCAGAGCUUAACACAGCGUGGCAAAAUGGCUGUGGCUAGACUGCC [C10U G27A]")
"Satisfied"
>>> class_name("GGCAUAGCUCAACACAGCGUGGCAAACUGGCUGUGGCUAGACUGCC [G5U G27C]")
"Not satisfied"
>>> class_name("GGCAGAGCUCAACACGGCGUGGCAAAGUGGGUGUGGCUAGACUGCC [A16G C31G]")
"Not satisfied"
>>> class_name("GGCAGAGCUCAACACAGCGUGGCAAAGUGGCUGUGUCUAGACCGCC [G36U U43C]")
"Not satisfied"
>>> class_name("GGCACAGCUCAACACAGCGUGGCAAAGUGACUGUGGCUAGACUGCC [G5C G30A]")
"Not satisfied"
>>> class_name("GGCAGUGCUCAACAGAGCGUGGCAAAGUGGCUGUGGCUAGACUGCC [A6U C15G]")
"Not satisfied"
>>> class_name("GGCAGAGCUCAACAGAGCGUGGCAAAGUGUCUGUGGCUAGACUGCC [C15G G30U]")
"Not satisfied"
>>> class_name("GGCAGAGGUCAACACAGCGUGGCAAAGUGGAUGUGGCUAGACUGCC [C8G C31A]")
"Not satisfied"
>>> class_name("AGCAGAGCUCAACACAGCGUGGCAAACUGGCUGUGGCUAGACUGCC [G1A G27C]")
"Satisfied"
>>> class_name("GGCAGAGCUCAACACAGCAUGGCAAAGUGGCUGUGGCCAGACUGCC [G19A U38C]")
"Satisfied"
>>> class_name("GGCACAGCUCAACACAGCGUGGCAAAGUGGCUGUGUCUAGACUGCC [G5C G36U]")
"Not satisfied"
>>> class_name("GGCAGAGCUCAACUCAGCGUGGCAAAGUGGCUUUGGCUAGACUGCC [A14U G33U]")
"Satisfied"
>>> class_name("GGCAGAGAUCAACACAGCGUGGCAAAGUGGCAGUGGCUAGACUGCC [C8A U32A]")
"Satisfied"
>>> class_name("GGCAGAGGUCAACACAGCGUGGCAAAGUGGCUGCGGCUAGACUGCC [C8G U34C]")
"Not satisfied"
>>> class_name("GGCAGAGCUCAACACAGUGUGGCAAAGUGGCUGUGGCUAGAUUGCC [C18U C42U]")
"Satisfied"
>>> class_name("GGCAUAGCUCAACACAGCGUGGCAAAGUGGCUGUGGCAAGACUGCC [G5U U38A]")
"Not satisfied"
>>> class_name("GGCAGAGCUCAACACAGCGUGACACAGUGGCUGUGGCUAGACUGCC [G22A A25C]")
"Satisfied"
>>> class_name("GGCAGAGCUCAACACAGCGUGGCAAAGUUCCUGUGGCUAGACUGCC [G29U G30C]")
"Satisfied"
>>> class_name("GGCAGAGCUCAACACAGCGUGGCAAAGUGACUGGGGCUAGACUGCC [G30A U34G]")
"Satisfied"
>>> class_name("GGCAGAGCUCAACACAGCGUGGCAAAGUGGGUGUGGCUAGACUUCC [C31G G44U]")
"Not satisfied"
>>> class_name("GGCACAUCUCAACACAGCGUGGCAAAGUGGCUGUGGCUAGACUGCC [G5C G7U]")
"Satisfied"
>>> class_name("GGCAGAGUUCAACACAGCGUGGCAAAGUGGCUAUGGCUAGACUGCC [C8U G33A]")
"Satisfied"
